EXPERIMENTAL_TARGET: M^Pro-eGFP fusion protein in 293T cells (Severe acute respiratory syndrome coronavirus 2)
MEASUREMENT_NOTES: cell-based
Set-up: species or system SARS-CoV-2
RUN_CONDITIONS: read-out: Cellular EC50
Consider the following molecules; for each one, report its pEC50.
The quantity pEC50 is defined as the negative base-10 logarithm of the molar concentration.

Exam item: May I ask what pEC50 has been recorded for COc1cccc2[nH]c(C(=O)N[C@@H](CC(C)(C)C)C(=O)N[C@H](C=O)C[C@@H]3CCNC3=O)cc12 ?
Marked response: 6.04

Exam item: Next record, please: CC(C)(C)C[C@H](NC(=O)OCc1ccccc1)C(=O)N[C@H](C=O)C[C@@H]1CCNC1=O
Marked response: 6.14

Exam item: Next record, please: O=C[C@H](C[C@@H]1CCNC1=O)NC(=O)[C@H](CC1CCCCC1)NC(=O)OCc1ccccc1
Marked response: 6.11

Exam item: Next record, please: O=C[C@H](C[C@@H]1CCNC1=O)NC(=O)[C@@H]1CC2(CC2)CN1C(=O)OCc1ccccc1
Marked response: 6.18
